- System: Lolium perenne
- Assay Protocol: Pre-emergence herbicidal assay, 96 cell trays, glasshouse
- Type: in vivo
- Condition Context: 168 h, second trial (Table 2), Lollium, 0.2 kg/ha, assessed 7 days after treatment, read-out: % control of plant growth
Result Type: pest or weed control at 200 g/ha

Form field pest or weed control at 200 g/ha, entry "C#CCN1C(=O)C2(CCC2)Oc2cc(F)c(N3C(=O)C=C(C(F)(F)F)C3=O)cc21" : < 20%

Form field pest or weed control at 200 g/ha, entry "C#CCN1C(=O)C2(CC2)Oc2cc(F)c(N3C(=O)C4=C(CCCC4)C3=O)cc21" : 20 to 80%

Form field pest or weed control at 200 g/ha, entry "C#CCN1C(=O)C2(CC2)Oc2cc(F)c(-n3c(=O)cc(C(F)(F)F)n(CC#C)c3=O)cc21" : 80 to 100%

Form field pest or weed control at 200 g/ha, entry C#CCN1C(=O)C2(CC2)Oc2cc(F)c(-n3c(=O)n(C)c(=S)n(C)c3=O)cc21 [Comparative Example, reference compound] : < 20%

The origin of these recorded values is patent US11261177B2.
